tested on: SR leukemia; assay: NCI tumour cell line growth inhibition, 48 h
Reported Property: TGI

[[record]]
compound = "CCOP1(=O)C=C(C)C(Cl)=C(C)C1 (stereo unspecified)"
reported_property = "TGI"
result = "> 100 µM"

[[record]]
compound = "Cc1cccc2c3c(sc12)C(c1ccc(Cl)cc1)C(C#N)=C(N)O3 (stereo unspecified)"
reported_property = "TGI"
result = "> 33.9 µM"

[[record]]
compound = "Cc1ccc(-c2nc(N/N=C/C=C/c3ccccc3)c3ccccc3n2)cc1"
reported_property = "TGI"
result = "> 100 µM"

[[record]]
compound = "Nc1[nH]c(=O)nc2c1cnn2C1CCCCO1 (stereo unspecified)"
reported_property = "TGI"
result = "> 100 µM"

[[record]]
compound = "Cc1cc(C#Cc2ccc(C(C)(C)C)cc2)ccc1-n1c(/C=C/c2ccc(O)cc2O)nc2ccccc2c1=O"
reported_property = "TGI"
result = "6.49 µM"

[[record]]
compound = "CCC1(O)C(=O)OCc2c1cc1n(c2=O)Cc2cc3c(NC(=O)CN)cccc3nc2-1 (stereo unspecified)"
reported_property = "TGI"
result = "0.183 µM"

[[record]]
compound = "CC(=O)OCCOCNC(=S)N/N=C/c1cc(Br)cs1"
reported_property = "TGI"
result = "> 100 µM"

[[record]]
compound = "COc1ccc(N(CC(=O)NCCC[Te]c2ccccc2)C(=O)CNC(=O)OC(C)(C)C)cc1"
reported_property = "TGI"
result = "7.75 µM"

[[record]]
compound = "CC12C=CC(=O)C=C1CCC1C3CCC(O)(C(=O)CO)C3(C)CC(O)C12F (stereo unspecified)"
reported_property = "TGI"
result = "> 100 µM"

[[record]]
compound = "COc1ccc(CCC2c3cc(OC)c(OC)cc3CCN2C)cc1OC (stereo unspecified)"
reported_property = "TGI"
result = "> 100 µM"

[[record]]
compound = "CCOC(=O)C1(F)S(=O)(=O)OCCOS1(=O)=O"
reported_property = "TGI"
result = "> 100 µM"

[[record]]
compound = "COc1ccc(OC)c(N(CN2C(=O)CCC2C(=O)O)C(C)=O)c1 (stereo unspecified)"
reported_property = "TGI"
result = "> 100 µM"

[[record]]
compound = "Nc1nc(Nc2ccccc2SSc2ccccc2Nc2nc(N)nc(C(Cl)(Cl)Cl)n2)nc(C(Cl)(Cl)Cl)n1"
reported_property = "TGI"
result = "3.76 µM"

[[record]]
compound = "CC1=NN(c2nc(N)nc(/C(C#N)=C\\c3csc([N+](=O)[O-])c3)n2)C(C)(C)C1"
reported_property = "TGI"
result = "> 100 µM"

[[record]]
compound = "CCOC(=O)N1N=C(/C(C)=N/OC)C(C)S1=O (stereo unspecified)"
reported_property = "TGI"
result = "> 100 µM"

[[record]]
compound = "CC1=NC(=Cc2ccccc2O)C(=O)N1n1c(-c2ccccc2)nc2ccccc2c1=O"
reported_property = "TGI"
result = "> 100 µM"

[[record]]
compound = "CC1(C)OCC([C@H]2O[C@@H](CC(=S)NCCCCCCCCCCCCNC(=S)C[C@H]3O[C@@H](C4COC(C)(C)O4)[C@H]4OC(C)(C)O[C@H]43)[C@H]3OC(C)(C)O[C@H]32)O1 (stereo partly specified)"
reported_property = "TGI"
result = "> 100 µM"

[[record]]
compound = "CCOC(=O)c1c(C)n(-c2ccc(Cl)cc2)c2c1cc(O)c1[nH]c3c(c12)CCCC3"
reported_property = "TGI"
result = "43.3 µM"

[[record]]
compound = "CCN(CC)CCCCCCNc1cc(OC)cc2cccnc12"
reported_property = "TGI"
result = "4.1 µM"

[[record]]
compound = "CSc1nc2sc3c(c2c(=O)n1-c1ccc(C(C)C)cc1)CCC(=O)C3"
reported_property = "TGI"
result = "6.02 µM"

[[record]]
compound = "CCN(CC)c1ccc2c(c1)Oc1ccc(N(CC)CC)cc1C21Oc2ccccc2-c2c1c1ccccc1n2CC (stereo unspecified)"
reported_property = "TGI"
result = "> 100 µM"

[[record]]
compound = "Clc1cc(Cl)cc(N=C/C=C/Nc2cc(Cl)cc(Cl)c2)c1"
reported_property = "TGI"
result = "86.4 µM"

[[record]]
compound = "O[C@@]12Cc3c([nH]c4ccccc34)[C@@H]3Oc4cccc5c4[C@@]31CCN(CC1CC1)[C@@H]2C5"
reported_property = "TGI"
result = "> 100 µM"

[[record]]
compound = "COC1C(N)C(OC2C(Oc3cccc4c(O)c5c(=O)oc6ccc(C)c7c(=O)oc(c34)c5c67)OC(C)C(O)C2(C)O)OC(C)C1O (stereo unspecified)"
reported_property = "TGI"
result = "8.12 µM"

[[record]]
compound = "O=C(O)CCC(=O)c1ccc2sc3ccccc3c2c1"
reported_property = "TGI"
result = "> 100 µM"

[[record]]
compound = "Cc1ccc(/C(C#N)=C/c2cccc([N+](=O)[O-])c2)cc1"
reported_property = "TGI"
result = "> 100 µM"

[[record]]
compound = "Cc1c(-c2ccccc2)[nH]c2cc(Cl)ccc2c1=O"
reported_property = "TGI"
result = "> 100 µM"

[[record]]
compound = "O=[N+]([O-])c1ccc(C(=S)Nc2ccccc2)o1"
reported_property = "TGI"
result = "10 µM"

[[record]]
compound = "Nc1nc(O)c2ncn([C@H]3CC[C@@H](CO)O3)c2n1"
reported_property = "TGI"
result = "> 100 µM"

[[record]]
compound = "COc1ncnc(NS(=O)(=O)c2ccc(N=C3C(=O)N(CN4CCN(c5c(F)cc6c(=O)c(C(=O)O)cn(C7CC7)c6c5OC)CC4C)c4ccc(Br)cc43)cc2)c1OC (stereo unspecified)"
reported_property = "TGI"
result = "> 50 µM"

[[record]]
compound = "CC(=O)Oc1ccc(/C=C/C(=O)OCCCOC(=O)/C=C/c2ccc(OC(C)=O)c(OC(C)=O)c2)cc1OC(C)=O"
reported_property = "TGI"
result = "> 100 µM"

[[record]]
compound = "COc1cc(C(C)O)c[n+](Cc2ccccc2)c1 (stereo unspecified)"
reported_property = "TGI"
result = "> 100 µM"

[[record]]
compound = "O=C(/C=C/c1ccccc1)Oc1ccc(C(=O)/C=C/c2ccc(Cl)cc2)cc1"
reported_property = "TGI"
result = "> 100 µM"

[[record]]
compound = "C#CCNC(=O)[C@H](CC)[C@H]1CC[C@H](C)[C@H]([C@@H](C)[C@H](O)[C@H](C)C(=O)[C@H](CC)C2O[C@]3(C=CC(=O)[C@]4(CC[C@@](C)([C@H]5CC[C@](O)(CC)[C@H](C)O5)O4)O3)[C@H](C)C[C@@H]2C)O1 (stereo partly specified)"
reported_property = "TGI"
result = "5.37 µM"

[[record]]
compound = "Nc1ccc2c(c1)nc1n2C(c2c(F)cccc2F)SC1 (stereo unspecified)"
reported_property = "TGI"
result = "> 100 µM"

[[record]]
compound = "COC1C(O)C(CO)OC(OC2C(O)COC(OC3C(C)OC(OC4C(O[C@H]5CC[C@@]6(C)C(CC=C7[C@H]6CCC68C(=O)O[C@@](C)(CCCC(C)C)[C@H]6[C@@H](OC(C)=O)C[C@@]78C)C5(C)C)OCC(OS(=O)(=O)O)C4O)C(OC4OCC(O)C(O)C4O)C3O)C2O)C1O (stereo partly specified)"
reported_property = "TGI"
result = "0.238 µM"

